Target: USP25 (UniProt Q9UHP3)
Sequence (whole entry): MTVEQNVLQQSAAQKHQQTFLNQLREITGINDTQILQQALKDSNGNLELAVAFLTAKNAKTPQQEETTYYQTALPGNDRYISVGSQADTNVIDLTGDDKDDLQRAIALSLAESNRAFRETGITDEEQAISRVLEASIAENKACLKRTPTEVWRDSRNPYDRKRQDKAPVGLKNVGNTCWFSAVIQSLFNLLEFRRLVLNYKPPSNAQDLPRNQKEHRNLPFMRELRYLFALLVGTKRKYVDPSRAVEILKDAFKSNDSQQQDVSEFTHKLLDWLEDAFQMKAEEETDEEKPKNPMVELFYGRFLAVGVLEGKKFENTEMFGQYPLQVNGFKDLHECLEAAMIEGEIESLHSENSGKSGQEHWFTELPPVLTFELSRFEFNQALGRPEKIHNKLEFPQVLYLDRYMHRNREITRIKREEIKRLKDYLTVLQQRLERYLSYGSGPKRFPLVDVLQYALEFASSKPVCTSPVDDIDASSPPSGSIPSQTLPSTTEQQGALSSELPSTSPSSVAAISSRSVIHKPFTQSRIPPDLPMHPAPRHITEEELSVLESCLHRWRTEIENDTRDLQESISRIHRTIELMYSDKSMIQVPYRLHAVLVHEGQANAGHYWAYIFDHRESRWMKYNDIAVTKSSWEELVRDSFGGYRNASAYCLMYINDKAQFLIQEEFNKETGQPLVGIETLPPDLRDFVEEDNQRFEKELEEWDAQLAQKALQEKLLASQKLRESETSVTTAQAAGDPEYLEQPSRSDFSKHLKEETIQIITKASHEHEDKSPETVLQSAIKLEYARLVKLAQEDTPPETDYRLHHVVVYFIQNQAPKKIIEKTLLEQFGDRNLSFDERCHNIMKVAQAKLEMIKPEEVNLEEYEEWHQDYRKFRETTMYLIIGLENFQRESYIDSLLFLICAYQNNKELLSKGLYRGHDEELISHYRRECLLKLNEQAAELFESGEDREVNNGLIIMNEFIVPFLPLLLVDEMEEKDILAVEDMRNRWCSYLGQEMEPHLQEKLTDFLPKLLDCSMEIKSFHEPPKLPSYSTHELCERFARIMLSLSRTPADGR
Test: log2 ratio of Biotin-Ahx-Ub-VS probe labelling (fragment/DMSO); higher = less target engagement (more negative = stronger competition), active = hit call of the paper (q ≤ 0.05, log2 ratio ≤ -1)
Conditions: compound concentration: 200 uM; treatment time: 3 h
Rule: log2 ratio of Biotin-Ahx-Ub-VS probe labelling of -0.2 or more gives true; anything lower gives false.

Example results:
Molecule: Cl.O=C(CCl)NCCc1ncc(F)cc1F
Discrete label: false
--
Molecule: O=C(CCl)Nc1ccc(Cl)c(F)c1
Discrete label: false
--
Molecule: O=C(CCl)N(C1CCCC1)C1CCS(=O)(=O)C1 (configuration not stated)
Discrete label: true
--
Molecule: O=C(CCl)N1CCC(OCc2ccccc2F)CC1
Discrete label: true
--
Molecule: O=C(CCl)N[C@H]1CC[C@@H](CO)CC1
Discrete label: false
--
Molecule: Cc1cc(C(=O)NC2CCN(C(=O)CCl)CC2)no1
Discrete label: false

Lookup: Check if log2 ratio of Biotin-Ahx-Ub-VS probe labelling >= -0.2 (inclusive). Item: Cc1ccc(N2CCC(NC(=O)CCl)C2=O)cc1 (configuration not stated)
Found: true

###

Biological target: UniProt Q5T2D3
Sequence (whole entry): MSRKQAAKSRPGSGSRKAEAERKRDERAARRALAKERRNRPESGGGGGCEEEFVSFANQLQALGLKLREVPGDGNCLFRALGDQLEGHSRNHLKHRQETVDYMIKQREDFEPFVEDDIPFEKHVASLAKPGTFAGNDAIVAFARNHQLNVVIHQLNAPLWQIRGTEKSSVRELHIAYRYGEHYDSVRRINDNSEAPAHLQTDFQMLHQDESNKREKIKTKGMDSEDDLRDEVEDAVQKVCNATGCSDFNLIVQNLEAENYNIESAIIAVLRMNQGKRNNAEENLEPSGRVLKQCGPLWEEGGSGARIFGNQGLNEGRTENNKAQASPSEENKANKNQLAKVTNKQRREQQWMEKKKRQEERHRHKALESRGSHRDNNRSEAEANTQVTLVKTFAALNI
Assay: log2 ratio of Biotin-Ahx-Ub-VS probe labelling (fragment/DMSO); higher = less target engagement (more negative = stronger competition), active = hit call of the paper (q ≤ 0.05, log2 ratio ≤ -1)
Settings: compound concentration: 200 uM; treatment time: 3 h
Would you mind sorting the entries by log2 ratio of Biotin-Ahx-Ub-VS probe labelling according to these classes? bin 0: < -0.3; bin 1: ≥ -0.3 and < -0.1; bin 2: ≥ -0.1

See these solved cases before continuing.
Compound: O=C(CCl)NCc1noc(C2CC2)n1
Target system: UniProt Q5T2D3
Discrete label: bin 0
--
Compound: O=C(CCl)N1CCC(C(=O)N2CCCC2)CC1
Target system: UniProt Q5T2D3
Discrete label: bin 2
--
Compound: CN(CCC(O)c1ccc(Br)cc1)C(=O)CCl (configuration not stated)
Target system: UniProt Q5T2D3
Discrete label: bin 1
--
Compound: O=C(O)C1Cc2ccccc2CN1C(=O)CCl (configuration not stated)
Target system: UniProt Q5T2D3
Discrete label: bin 1
--
Compound: Cl.O=C(CCl)NCCc1ncc(F)cc1F
Target system: UniProt Q5T2D3
Discrete label: bin 0
--
Compound: Cl.Cn1ncc2c1CC(NC(=O)CCl)CC2 (configuration not stated)
Target system: UniProt Q5T2D3
Discrete label: bin 2
--
Compound: Cl.O=C(CCl)N1CCC(n2nc3ccccc3n2)CC1
Target system: UniProt Q5T2D3
Discrete label: bin 1
--
Compound: Cc1cccc(N2CCC(NC(=O)CCl)C2=O)c1 (configuration not stated)
Target system: UniProt Q5T2D3
Discrete label: bin 0

Lookup: Kindly identify the class of O=C(CCl)Nc1cc(Cl)ccc1C(=O)O .
Found: bin 1

Lookup: Exercise: read the entry CS(=O)(=O)c1ccc(CNC(=O)CCl)cc1 and state which class it falls under.
Found: bin 0

###

biological target: EIF3F (UniProt O00303); test: log2 ratio of Biotin-Ahx-Ub-VS probe labelling (fragment/DMSO); higher = less target engagement (more negative = stronger competition), active = hit call of the paper (q ≤ 0.05, log2 ratio ≤ -1); conditions: compound concentration: 200 uM; treatment time: 3 h
Sequence (O00303 whole entry, the tested form may be a part): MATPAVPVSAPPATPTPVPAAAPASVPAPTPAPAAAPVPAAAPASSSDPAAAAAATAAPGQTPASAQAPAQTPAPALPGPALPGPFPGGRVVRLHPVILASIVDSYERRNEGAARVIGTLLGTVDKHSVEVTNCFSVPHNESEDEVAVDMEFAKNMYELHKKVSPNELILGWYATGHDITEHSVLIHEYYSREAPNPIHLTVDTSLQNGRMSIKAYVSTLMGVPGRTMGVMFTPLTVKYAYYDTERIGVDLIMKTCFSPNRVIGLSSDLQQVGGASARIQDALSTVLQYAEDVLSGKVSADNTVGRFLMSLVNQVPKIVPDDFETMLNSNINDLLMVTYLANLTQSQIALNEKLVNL
log2 ratio of Biotin-Ahx-Ub-VS probe labelling reference

Example compounds with recorded log2 ratio of Biotin-Ahx-Ub-VS probe labelling:
Compound: O=C(CCl)N1CCC(S(=O)(=O)c2ccc(F)cc2)CC1
Data value: -0.133 (inactive)
//
Compound: CC1CCc2onc(CNC(=O)CCl)c2C1 (centres undefined)
Data value: -0.165 (inactive)
//
Compound: Cc1cccc(N2CCC(NC(=O)CCl)C2=O)c1 (centres undefined)
Data value: -0.331 (inactive)

Lookup: Given the compound O=C(CCl)NC1(c2ccc3c(c2)OCCO3)CCCC1 , write its reported log2 ratio of Biotin-Ahx-Ub-VS probe labelling.
Found: -0.19 (inactive)

Lookup: Hello, please tell me recorded log2 ratio of Biotin-Ahx-Ub-VS probe labelling for this one: CC1(NC(=O)CCl)CCS(=O)(=O)C1 (centres undefined)
Found: -0.345 (inactive)

Lookup: Query log2 ratio of Biotin-Ahx-Ub-VS probe labelling for CS(=O)(=O)c1ccc(NC(=O)CCl)cc1
Found: -0.0107 (inactive)

Lookup: Dear colleague, please send me the reported log2 ratio of Biotin-Ahx-Ub-VS probe labelling for O=C(CCl)N1CCc2[nH]c3ccccc3c2C1 when you can.
Found: -0.00281 (inactive)

Lookup: Provide log2 ratio of Biotin-Ahx-Ub-VS probe labelling value for the following compound: Cc1ccccc1C1(CNC(=O)CCl)CCOCC1
Found: 0.0678 (inactive)

Lookup: Look up log2 ratio of Biotin-Ahx-Ub-VS probe labelling of O=C(CCl)NCC1(c2ccccc2)CC1 and report it.
Found: -0.053 (inactive)

Lookup: Give the reported log2 ratio of Biotin-Ahx-Ub-VS probe labelling for this compound. Cc1nc(-c2cccc(NC(=O)CCl)c2)cs1
Found: -0.303 (inactive)

Lookup: Entry CCC(NC(=O)CCl)c1ccc(Cl)cc1 (centres undefined) needs its log2 ratio of Biotin-Ahx-Ub-VS probe labelling filled in; supply it.
Found: -0.0176 (inactive)

Lookup: Answer with the recorded log2 ratio of Biotin-Ahx-Ub-VS probe labelling of COCC1C=CCCN1C(=O)CCl (centres undefined) only.
Found: -0.011 (inactive)

Lookup: Determine its reported log2 ratio of Biotin-Ahx-Ub-VS probe labelling: Cc1cc(CC(C)NC(=O)CCl)n[nH]1 (centres undefined)
Found: -0.138 (inactive)

###

target: USP39 (UniProt Q53GS9); assay: log2 ratio of Biotin-Ahx-Ub-VS probe labelling (fragment/DMSO); higher = less target engagement (more negative = stronger competition), active = hit call of the paper (q ≤ 0.05, log2 ratio ≤ -1); conditions: compound concentration: 200 uM; treatment time: 3 h
Sequence (Q53GS9 whole entry, the tested form may be a part): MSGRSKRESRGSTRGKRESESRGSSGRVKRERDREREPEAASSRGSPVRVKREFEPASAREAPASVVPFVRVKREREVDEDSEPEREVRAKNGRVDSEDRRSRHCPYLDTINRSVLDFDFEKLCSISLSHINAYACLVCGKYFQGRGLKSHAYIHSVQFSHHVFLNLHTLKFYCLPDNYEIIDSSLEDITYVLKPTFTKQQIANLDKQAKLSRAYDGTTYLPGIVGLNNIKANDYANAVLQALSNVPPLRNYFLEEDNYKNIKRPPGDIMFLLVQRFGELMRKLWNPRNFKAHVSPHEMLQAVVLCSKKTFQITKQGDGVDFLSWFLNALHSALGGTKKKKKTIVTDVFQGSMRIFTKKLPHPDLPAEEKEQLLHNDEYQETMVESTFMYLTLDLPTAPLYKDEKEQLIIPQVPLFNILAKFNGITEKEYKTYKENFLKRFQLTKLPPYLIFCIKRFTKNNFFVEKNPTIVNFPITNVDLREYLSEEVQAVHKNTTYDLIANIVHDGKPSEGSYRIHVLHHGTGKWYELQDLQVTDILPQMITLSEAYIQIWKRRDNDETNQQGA
Ranges used to classify log2 ratio of Biotin-Ahx-Ub-VS probe labelling: low = under -0.01, moderate = from -0.01 up to 0.1, high = 0.1 and over

Previously resolved entries follow.
Compound: O=C(CCl)N1CCCCC12CCOCC2
Target system: USP39 (UniProt Q53GS9)
Discrete label: low
--
Compound: Cc1c(C#N)c(NC(=O)CCl)n(Cc2ccco2)c1C
Target system: USP39 (UniProt Q53GS9)
Discrete label: low
--
Compound: CC(NC(=O)CCl)c1cnn(C2CC2)c1 (stereo unspecified)
Target system: USP39 (UniProt Q53GS9)
Discrete label: low
--
Compound: O=C(CCl)NCc1ccc(N2CCOCC2)nc1
Target system: USP39 (UniProt Q53GS9)
Discrete label: moderate
--
Compound: O=C(CCl)Nc1cccc(C(=O)N2CCSCC2)c1
Target system: USP39 (UniProt Q53GS9)
Discrete label: high

Lookup: Into which bin does this compound go? Cc1nc(-c2cccc(NC(=O)CCl)c2)cs1
Found: high

Lookup: Hey, which category is Cl.O=C(CCl)N1CCn2ncc(O)c2C1 in, do you know?
Found: high
